Entry source: PubChem BioAssay (NCI)

system: OVCAR-5 ovarian; assay: NCI-60 one-dose screen, 48 h (100 = growth as untreated, 0 = no growth, -100 = all killed); conditions: 10 µM unless noted
The panel holds about 83,000 compounds, 20% with a hit somewhere; the sample as a whole holds those more often.
Reported endpoint: growth (%)
Please give a number only; it is taken to be in %.

Illustrative cases are given below, each with its answer.
Molecule | Measurement target | Reported endpoint | Numeric readout
C=C1C(=O)O[C@H]2[C@H]1CC/C(COC(=O)Nc1nc3ccccc3[nH]1)=C\CC[C@@]1(C)O[C@@H]21 | OVCAR-5 ovarian | growth | 127
COc1ccccc1N1CCN(CCCOc2ccc(C(=O)/C=C3/C(=O)Nc4ccccc43)cc2)CC1 | OVCAR-5 ovarian | growth | 32.4
NS(=O)(=O)c1ccc(C2C3=C(CCCC3=O)OC3=C2C(=O)c2ccccc2C3=O)cc1 (stereo not drawn) | OVCAR-5 ovarian | growth | -53.1

The molecule `CN1CCN(S(=O)(=O)O[C@@H]2C(=O)N(c3cc4c5ccccc5ccc4c4ccccc34)[C@H]2c2ccc(F)cn2)CC1` showed growth equal to 108

Entry under test: COc1ccc(-c2nc(C#N)c(NCC(c3ccc(Cl)cc3)N3CCCCC3)o2)cc1 (stereo not drawn) . Its growth was 96
